Please respond with reported pKi for every item in the list.
Friendly reminder that pKi comes from taking -log10 of the concentration in mol/L.

Request: pKi, test system purine nucleoside phosphorylase (PNP) (Bos taurus, UniProt P55859), entry Nc1nc2c(ncn2Cc2ccccc2OCP(=O)(O)O)c(=O)[nH]1 8.12

Request: pKi, test system purine nucleoside phosphorylase (PNP) (Bos taurus, UniProt P55859), entry Nc1nc2c(ncn2Cc2ccccc2OCCC(F)(F)P(=O)(O)O)c(=O)[nH]1 6.60
